# target system: T1, murine TIM-3 extracellular domain protein with hFc tag (mTIM-3-hFc) (mouse, UniProt Q8VIM0 29-191)
# T1 construct: also called mouse TIM-3 extracellular domain protein; not shown: human IgG Fc fragment (hFc) of the pCpC vector
# T1 chain: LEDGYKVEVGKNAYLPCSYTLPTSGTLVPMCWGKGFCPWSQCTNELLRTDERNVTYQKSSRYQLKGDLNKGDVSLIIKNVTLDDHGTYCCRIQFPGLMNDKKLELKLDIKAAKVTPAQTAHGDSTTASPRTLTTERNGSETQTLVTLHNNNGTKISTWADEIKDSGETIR
# assay overview: ELISA, coated mouse TIM-3 ECD protein, 0.6667 nM antibody
readout label: OD450
Reply with the value as a number alone.

Examples with their reported OD450 follow.
{"binder": "7A4F10 fully human TIM-3 antibody (human IgG4, kappa) (antibody, V domains shown) VH: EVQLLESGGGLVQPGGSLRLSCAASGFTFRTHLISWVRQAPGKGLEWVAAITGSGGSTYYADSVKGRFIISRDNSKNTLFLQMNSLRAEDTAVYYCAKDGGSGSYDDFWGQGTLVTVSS VL: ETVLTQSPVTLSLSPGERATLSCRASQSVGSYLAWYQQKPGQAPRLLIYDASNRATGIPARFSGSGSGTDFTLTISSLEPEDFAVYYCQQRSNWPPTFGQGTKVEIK", "OD450": 0.25}
{"binder": "57F4E5 fully human TIM-3 antibody (human IgG4, kappa) (antibody, V domains shown) VH: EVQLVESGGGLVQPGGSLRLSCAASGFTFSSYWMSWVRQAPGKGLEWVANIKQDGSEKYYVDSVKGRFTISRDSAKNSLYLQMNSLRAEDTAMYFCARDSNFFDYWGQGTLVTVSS VL: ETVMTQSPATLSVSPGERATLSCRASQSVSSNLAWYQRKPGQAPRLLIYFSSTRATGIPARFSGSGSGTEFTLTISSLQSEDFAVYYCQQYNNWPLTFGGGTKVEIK", "OD450": 0.28}

Now consider a different binder.
Reported OD450 ( 34B6D8 fully human TIM-3 antibody (human IgG4, kappa) (antibody, V domains shown) VH: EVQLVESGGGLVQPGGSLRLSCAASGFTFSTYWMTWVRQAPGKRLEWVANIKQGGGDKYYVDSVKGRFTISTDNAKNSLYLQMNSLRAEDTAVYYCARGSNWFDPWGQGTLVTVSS VL: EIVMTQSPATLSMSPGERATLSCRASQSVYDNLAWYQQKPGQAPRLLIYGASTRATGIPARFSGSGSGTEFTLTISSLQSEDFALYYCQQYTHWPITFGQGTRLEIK ) = 0.27
